# system: Phosphatidylinositol 4,5-bisphosphate 3-kinase catalytic subunit gamma isoform (Homo sapiens, UniProt P48736)
# Sequence (P48736 whole entry, canonical isoform): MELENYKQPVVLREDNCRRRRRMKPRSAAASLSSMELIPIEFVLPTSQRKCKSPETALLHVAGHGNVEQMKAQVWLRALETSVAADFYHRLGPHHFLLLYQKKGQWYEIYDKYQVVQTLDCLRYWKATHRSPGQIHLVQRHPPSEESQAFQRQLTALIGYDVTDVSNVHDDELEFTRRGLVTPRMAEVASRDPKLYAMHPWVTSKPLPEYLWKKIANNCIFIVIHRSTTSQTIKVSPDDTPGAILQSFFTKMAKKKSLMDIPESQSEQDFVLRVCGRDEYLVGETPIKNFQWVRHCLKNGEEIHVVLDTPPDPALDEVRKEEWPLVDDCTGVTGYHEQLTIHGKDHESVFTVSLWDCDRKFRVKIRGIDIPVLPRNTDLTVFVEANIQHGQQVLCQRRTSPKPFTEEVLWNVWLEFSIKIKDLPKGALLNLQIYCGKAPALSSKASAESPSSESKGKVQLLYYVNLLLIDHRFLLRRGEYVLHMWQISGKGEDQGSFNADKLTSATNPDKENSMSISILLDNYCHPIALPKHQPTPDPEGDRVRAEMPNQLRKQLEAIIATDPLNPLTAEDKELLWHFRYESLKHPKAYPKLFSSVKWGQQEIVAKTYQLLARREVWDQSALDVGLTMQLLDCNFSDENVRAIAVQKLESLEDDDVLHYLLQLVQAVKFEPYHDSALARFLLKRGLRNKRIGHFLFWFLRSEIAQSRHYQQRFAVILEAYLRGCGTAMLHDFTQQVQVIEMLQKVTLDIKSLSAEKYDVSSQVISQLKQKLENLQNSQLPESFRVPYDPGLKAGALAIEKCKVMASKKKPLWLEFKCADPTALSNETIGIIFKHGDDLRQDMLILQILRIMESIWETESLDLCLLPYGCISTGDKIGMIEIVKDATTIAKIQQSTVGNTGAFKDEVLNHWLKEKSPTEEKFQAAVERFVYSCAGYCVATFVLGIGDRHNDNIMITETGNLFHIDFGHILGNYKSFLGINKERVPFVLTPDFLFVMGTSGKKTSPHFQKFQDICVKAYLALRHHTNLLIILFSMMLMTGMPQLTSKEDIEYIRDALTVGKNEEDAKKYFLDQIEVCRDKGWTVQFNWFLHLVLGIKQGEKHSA
Where a name gives a salt, the structure may show the parent alone.
assayEndpoint: IC50 (nM)
Your answer is read as nM, so omit the unit and give the number.

Query: Return reported IC50. Input compound: c1cnc2ccc(Nc3nc(NC4CC4)c4nc[nH]c4n3)cc2c1 [PUQUITINIB MESYLATE DIHYDRATE]
Response: 89.7

====

# system: Phosphatidylinositol 4,5-bisphosphate 3-kinase catalytic subunit beta isoform (Homo sapiens)
# Sequence (P42338 whole entry, canonical isoform): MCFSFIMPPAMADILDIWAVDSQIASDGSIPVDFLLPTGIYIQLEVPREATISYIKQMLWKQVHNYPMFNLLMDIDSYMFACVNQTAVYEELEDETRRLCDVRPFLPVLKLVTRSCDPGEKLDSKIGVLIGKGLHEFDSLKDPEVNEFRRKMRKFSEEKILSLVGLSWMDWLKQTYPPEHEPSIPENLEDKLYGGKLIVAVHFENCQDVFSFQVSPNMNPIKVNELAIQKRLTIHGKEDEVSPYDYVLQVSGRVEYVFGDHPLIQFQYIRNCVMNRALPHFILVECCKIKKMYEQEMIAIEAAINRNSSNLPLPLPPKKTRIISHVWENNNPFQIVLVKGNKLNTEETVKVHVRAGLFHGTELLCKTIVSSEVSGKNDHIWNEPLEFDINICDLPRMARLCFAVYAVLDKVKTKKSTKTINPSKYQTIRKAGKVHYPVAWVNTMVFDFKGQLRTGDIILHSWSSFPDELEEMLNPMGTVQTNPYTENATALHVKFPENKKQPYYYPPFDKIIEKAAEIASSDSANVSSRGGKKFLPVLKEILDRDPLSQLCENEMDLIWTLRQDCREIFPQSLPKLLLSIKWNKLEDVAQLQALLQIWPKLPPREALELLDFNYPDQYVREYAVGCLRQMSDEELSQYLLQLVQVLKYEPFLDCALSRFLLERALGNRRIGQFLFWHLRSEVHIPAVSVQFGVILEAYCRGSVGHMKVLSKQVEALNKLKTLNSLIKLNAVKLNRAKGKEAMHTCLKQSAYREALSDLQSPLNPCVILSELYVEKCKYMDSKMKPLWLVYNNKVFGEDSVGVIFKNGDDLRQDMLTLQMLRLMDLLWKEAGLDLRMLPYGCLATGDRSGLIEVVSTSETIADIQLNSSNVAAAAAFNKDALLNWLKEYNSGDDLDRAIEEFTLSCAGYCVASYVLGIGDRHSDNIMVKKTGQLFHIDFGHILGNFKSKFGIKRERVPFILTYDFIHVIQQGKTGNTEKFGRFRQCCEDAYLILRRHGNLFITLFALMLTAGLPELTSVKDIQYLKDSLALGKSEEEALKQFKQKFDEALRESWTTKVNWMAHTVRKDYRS
# procedureText: Inhibition of PI3K p110beta (unknown origin)
Counter-ions that a name gives are not always drawn.
assayEndpoint: IC50

Query: Return reported IC50. Input compound: c1cnc2ccc(Nc3nc(NC4CC4)c4nc[nH]c4n3)cc2c1 [PUQUITINIB MESYLATE DIHYDRATE]
Response: 699 nM

====

# system: Serine/threonine-protein kinase ULK2 (Homo sapiens, UniProt Q8IYT8)
# Sequence (Q8IYT8 whole entry): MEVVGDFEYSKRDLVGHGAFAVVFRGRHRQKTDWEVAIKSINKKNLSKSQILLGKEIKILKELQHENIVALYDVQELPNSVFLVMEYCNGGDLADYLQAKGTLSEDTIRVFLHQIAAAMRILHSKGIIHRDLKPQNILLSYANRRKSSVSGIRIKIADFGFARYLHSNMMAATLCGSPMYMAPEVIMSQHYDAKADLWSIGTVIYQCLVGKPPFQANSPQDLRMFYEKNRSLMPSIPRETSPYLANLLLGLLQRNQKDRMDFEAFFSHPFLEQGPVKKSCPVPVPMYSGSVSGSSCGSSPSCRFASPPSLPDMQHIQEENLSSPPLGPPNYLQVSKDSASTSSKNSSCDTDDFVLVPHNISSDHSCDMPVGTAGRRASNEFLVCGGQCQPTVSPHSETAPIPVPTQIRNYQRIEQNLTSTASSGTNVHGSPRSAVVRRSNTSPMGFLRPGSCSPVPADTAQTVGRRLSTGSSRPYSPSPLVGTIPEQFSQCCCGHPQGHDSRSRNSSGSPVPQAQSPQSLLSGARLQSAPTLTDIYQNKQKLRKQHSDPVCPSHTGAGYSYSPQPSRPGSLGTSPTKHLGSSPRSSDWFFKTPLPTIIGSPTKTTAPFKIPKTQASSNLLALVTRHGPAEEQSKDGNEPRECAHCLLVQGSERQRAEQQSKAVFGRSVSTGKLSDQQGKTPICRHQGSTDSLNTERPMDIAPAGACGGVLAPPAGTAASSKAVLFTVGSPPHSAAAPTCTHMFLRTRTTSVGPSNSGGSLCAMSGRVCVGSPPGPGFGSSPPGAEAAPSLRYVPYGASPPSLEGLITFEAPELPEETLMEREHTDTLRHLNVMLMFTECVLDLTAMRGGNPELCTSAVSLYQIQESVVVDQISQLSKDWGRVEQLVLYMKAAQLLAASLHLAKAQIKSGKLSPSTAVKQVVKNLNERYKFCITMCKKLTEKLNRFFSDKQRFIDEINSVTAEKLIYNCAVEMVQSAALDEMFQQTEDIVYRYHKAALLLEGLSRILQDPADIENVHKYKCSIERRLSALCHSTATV
# procedureText: Inhibition of ULK2 (unknown origin)
assayEndpoint: IC50 (µM)
Your answer is read as µM, so omit the unit and give the number.

Query: Return reported IC50. Input compound: CNC(=O)c1ccccc1Oc1nc(Nc2cc(OC)c(OC)c(OC)c2)ncc1Br
Response: 0.011

====

# system: Phosphatidylinositol 4,5-bisphosphate 3-kinase catalytic subunit delta isoform (Homo sapiens)
# Sequence (O00329 whole entry, canonical isoform): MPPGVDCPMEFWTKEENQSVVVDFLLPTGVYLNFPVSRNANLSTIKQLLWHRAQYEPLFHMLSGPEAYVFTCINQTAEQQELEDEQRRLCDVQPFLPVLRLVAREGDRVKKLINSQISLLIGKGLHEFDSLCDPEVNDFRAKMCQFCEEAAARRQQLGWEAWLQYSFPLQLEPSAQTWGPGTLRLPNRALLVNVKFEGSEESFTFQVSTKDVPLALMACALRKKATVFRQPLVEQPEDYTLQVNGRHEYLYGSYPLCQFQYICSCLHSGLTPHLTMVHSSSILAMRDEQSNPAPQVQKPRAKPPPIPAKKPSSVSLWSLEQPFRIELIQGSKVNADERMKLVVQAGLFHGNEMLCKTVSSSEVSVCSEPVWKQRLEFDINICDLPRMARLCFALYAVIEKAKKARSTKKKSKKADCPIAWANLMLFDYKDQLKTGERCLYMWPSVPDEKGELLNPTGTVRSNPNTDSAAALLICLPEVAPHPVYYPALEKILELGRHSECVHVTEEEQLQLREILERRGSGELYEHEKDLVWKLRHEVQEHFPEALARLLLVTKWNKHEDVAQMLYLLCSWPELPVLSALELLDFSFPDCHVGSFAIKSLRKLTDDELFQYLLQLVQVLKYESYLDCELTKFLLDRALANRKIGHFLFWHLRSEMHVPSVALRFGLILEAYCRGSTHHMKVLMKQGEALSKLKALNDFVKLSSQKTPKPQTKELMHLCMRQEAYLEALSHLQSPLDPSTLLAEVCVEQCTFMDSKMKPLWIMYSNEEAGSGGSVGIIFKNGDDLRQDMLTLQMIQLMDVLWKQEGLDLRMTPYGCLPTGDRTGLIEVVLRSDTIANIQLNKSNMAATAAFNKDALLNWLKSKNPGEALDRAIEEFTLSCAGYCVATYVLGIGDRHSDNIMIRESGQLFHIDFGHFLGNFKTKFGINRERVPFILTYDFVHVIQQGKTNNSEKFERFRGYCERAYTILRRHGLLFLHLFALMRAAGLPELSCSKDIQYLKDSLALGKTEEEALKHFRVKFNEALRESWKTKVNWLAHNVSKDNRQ
# procedureText: Inhibition of PI3K p110delta (unknown origin)
Structures can show the parent of a compound that is named as a salt.
assayEndpoint: IC50 (nM)
Your answer is read as nM, so omit the unit and give the number.

Query: Return reported IC50. Input compound: c1cnc2ccc(Nc3nc(NC4CC4)c4nc[nH]c4n3)cc2c1 [PUQUITINIB MESYLATE DIHYDRATE]
Response: 2.8

====

# system: Serine/threonine-protein kinase ULK2 (Homo sapiens)
assayEndpoint: IC50 (nM)
Your answer is read as nM, so omit the unit and give the number.

Query: Return reported IC50. Input compound: CN1CCc2cc(Nc3ncc(C4CC4)c(NCCCNC(=O)C4CCC4)n3)ccc2C1
Response: 1.1

====

# procedureText: Dissociation constant, pKa of compound
# Format: physicochemical
assayEndpoint: pKa

Query: Return reported pKa. Input compound: CN1CCN(Cc2cc(CNC3(c4ccccc4F)CCCC3)ccc2O)CC1
Response: > 7.5

====

assayEndpoint: IC50

Query: // fetch IC50 for COC(=O)Nc1ccc(-c2nc(N3CCOCC3)c3cnn(C4CCN(C(=O)OC)CC4)c3n2)cc1 ; system: mTORC2 (Homo sapiens, UniProt P42345)
Response: 5 to 9 nM

Query: // fetch IC50 for O=C(/C=C/c1ccc2c(c1)OCO2)CC1(O)C(=O)Nc2ccccc21 (configuration not stated) ; system: mTORC2 (Homo sapiens, UniProt P42345)
Response: 1 to 5 nM

====

# procedureText: Cytotoxicity in human U2OS cells incubated for 24 to 48 hrs by CellTiter Glo assay
# Type: cell-based
# conditionContext: read-out: LD50 (the source's name)
assayEndpoint: CC50
Numeric answer plus unit only.

Query: Return reported CC50. Input compound: CCN(CC)CCCC(C)Nc1c2ccc(Cl)cc2nc2ccc(OC)cc12 (stereo unspecified)
Response: 2.5 µM

src = ChEMBL document CHEMBL4308824
